Assay: The inhibitory activity against KDO 8-P synthase was determined
Design: species or system Escherichia coli
Observation Type: Ki (µM)
Answer with a number only, understood to be in µM.

Recorded Ki (molecule O=C(O)C1(OP(=O)(O)O)CC(O)C(O)C([C@H](O)COP(=O)(O)O)O1 (stereo partly specified) ): 35

---

Experiment: Half-life was determined at pD 7.0 and 25 degree Centigrade
Format: ADME
Details: pH 7
Observation Type: half-life (h)
Dear colleague, please return just the value in h, with no unit written.

Record O=C(O)C1(OP(=O)(O)O)CC(O)C(O)C([C@H](O)COP(=O)(O)O)O1 (stereo partly specified) . Reported half-life: 4.7

---

Experiment: Half-life was determined at pD 7.0 and 37 degree Centigrade
Type: ADME
Details: pH 7
Observation Type: half-life

Measured half-life of O=C(O)C1(OP(=O)(O)O)CC(O)C(O)C([C@H](O)COP(=O)(O)O)O1 (stereo partly specified) : 2.5 h

All figures here come from ChEMBL document CHEMBL1130538.
